# assay.summary: total protein half-life in vivo (active degradation + dilution); higher = more stable protein
# settings: E. coli NCM3722 delta-clpP; growth: N-lim chemostat; doubling time 6 h
value.kind: total protein half-life in vivo (h)

>>> experimental_value("MGQRIPVTLGNIAPLSLRPFQPGRIALVCEGGGQRGIFTAGVLDEFMRAQFNPFDLYLGTSAGAQNLSAFICNQPGYARKVIMRYTTKREFFDPLRFVRGGNLIDLDWLVEATASQMPLQMDTAARLFDSGKSFYMCACRQDDYAPNYFLPTKQNWLDVIRASSAIPGFYRSGVSLEGINYLDGGISDAIPVKEAARQGAKTLVVIRTVPSQMYYTPQWFKRMERWLGDSSLQPLVNLVQHHETSYRDIQQFIEKPPGKLRIFEIYPPKPLHSIALGSRIPALREDYKLGRLCGRYFLATVGKLLTEKAPLTRHLVPVVTPESIVIPPAPVANDTLVAEVSDAPQANDPTFNNEDLA")
1.88
>>> experimental_value("MRLEFSIYRYNPDVDDAPRMQDYTLEADEGRDMMLLDALIQLKEKDPSLSFRRSCREGVCGSDGLNMNGKNGLACITPISALNQPGKKIVIRPLPGLPVIRDLVVDMGQFYAQYEKIKPYLLNNGQNPPAREHLQMPEQREKLDGLYECILCACCSTSCPSFWWNPDKFIGPAGLLAAYRFLIDSRDTETDSRLDGLSDAFSVFRCHSIMNCVSVCPKGLNPTRAIGHIKSMLLQRNA")
5.1
>>> experimental_value("MIEADRLISAGTTLPEDVADRAIRPKLLEEYVGQPQVRSQMEIFIKAAKLRGDALDHLLIFGPPGLGKTTLANIVANEMGVNLRTTSGPVLEKAGDLAAMLTNLEPHDVLFIDEIHRLSPVVEEVLYPAMEDYQLDIMIGEGPAARSIKIDLPPFTLIGATTRAGSLTSPLRDRFGIVQRLEFYQVPDLQYIVSRSARFMGLEMSDDGALEVARRARGTPRIANRLLRRVRDFAEVKHDGTISADIAAQALDMLNVDAEGFDYMDRKLLLAVIDKFFGGPVGLDNLAAAIGEERETIEDVLEPYLIQQGFLQRTPRGRMATTRAWNHFGITPPEMP [P0A812]")
3.14
>>> experimental_value("MIYIGLPQWSHPKWVRLGITSLEEYARHFNCVEGNTTLYALPKPEVVLRWREQTTDDFRFCFKFPATISHQAALRHCDDLVTEFLTRMSPLAPRIGQYWLQLPATFGPRELPALWHFLDSLPGEFNYGVEVRHPQFFAKGEEEQTLNRGLHQRGVNRVILDSRPVHAARPHSEAIRDAQRKKPKVPVHAVLTATNPLIRFIGSDDMTQNRELFQVWLQKLAQWHQTTTPYLFLHTPDIAQAPELVHTLWEDLRKTLPEIGAVPAIPQQSSLF")
3.55
>>> experimental_value("MIDTTLPLTDIHRHLDGNIRPQTILELGRQYNISLPAQSLETLIPHVQVIANEPDLVSFLTKLDWGVKVLASLDACRRVAFENIEDAARHGLHYVELRFSPGYMAMAHQLPVAGVVEAVIDGVREGCRTFGVQAKLIGIMSRTFGEAACQQELEAFLAHRDQITALDLAGDELGFPGSLFLSHFNRARDAGWHITVHAGEAAGPESIWQAIRELGAERIGHGVKAIEDRALMDFLAEQQIGIESCLTSNIQTSTVAELAAHPLKTFLEHGIRASINTDDPGVQGVDIIHEYTVAAPAAGLSREQIRQAQINGLEMAFLSAEEKRALREKVAAK")
4.73
